Target: KOR (κ opioid receptor) (Homo sapiens, UniProt P41145)
Construct: expressed in transfected cells; host or cells: HEK293 (stably transfected)
Sequence (P41145 whole entry): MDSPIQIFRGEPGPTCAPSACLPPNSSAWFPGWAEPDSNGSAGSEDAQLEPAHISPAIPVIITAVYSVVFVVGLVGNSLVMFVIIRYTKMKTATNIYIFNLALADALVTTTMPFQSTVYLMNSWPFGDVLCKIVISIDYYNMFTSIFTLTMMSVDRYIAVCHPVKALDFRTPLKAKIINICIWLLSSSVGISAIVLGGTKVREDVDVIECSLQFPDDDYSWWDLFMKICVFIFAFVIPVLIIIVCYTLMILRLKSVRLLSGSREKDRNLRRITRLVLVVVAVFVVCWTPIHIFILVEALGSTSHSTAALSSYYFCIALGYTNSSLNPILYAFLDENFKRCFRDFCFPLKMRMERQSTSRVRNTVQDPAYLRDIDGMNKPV
Assay: KOR radioligand binding ([3H]-U69593, HEK293 cell homogenates)
Conditions: Percent inhibition at 10,000 nM; [3H]-U69593
Description: Radioligand binding assays. Detailed protocols for the primary and secondary radioligand binding assays can be found in the National Institute of Mental Health's Psychoactive Drug Screening Program (NIMH PDSP) Assay Protocol Book (Roth, 2018). […] Total binding and nonspecific binding are determined in the absence and presence of 10 μM of appropriate reference compound (Naltrindole DOR, Salvinorin A KOR and DAMGO MOR). […] The data (n=6) were analyzed by nonlinear regression. […]
Measurement type: inhibition at 10 µM (%)

molecule="C#Cc1ccc2c(c1)C(c1ccccc1F)=N[C@@H](C)c1c(-c3nc(C(C)C)no3)ncn1-2 [GL-I-81]" assay_target="KOR (κ opioid receptor) (Homo sapiens, UniProt P41145)" value_measured=93
molecule="C#Cc1ccc2c(c1)C(c1ccccn1)=NCc1c(C(=O)O)ncn1-2 [SR-II-54]" assay_target="KOR (κ opioid receptor) (Homo sapiens, UniProt P41145)" value_measured=9
molecule="C#Cc1ccc2c(c1)C(c1ccccc1F)=NCc1c(-c3cnco3)ncn1-2 [KRM-II-18B]" assay_target="KOR (κ opioid receptor) (Homo sapiens, UniProt P41145)" value_measured=89
molecule="C#Cc1ccc2c(c1)C(c1ccccc1F)=N[C@@H](C)c1c(C(=O)OCC(F)(F)F)ncn1-2 [GL-I-36]" assay_target="KOR (κ opioid receptor) (Homo sapiens, UniProt P41145)" value_measured=85
molecule="C[C@H]1N=C(c2ccccc2F)c2cc(Cl)ccc2-n2cnc(C(=O)O)c21 [GL-III-54]" assay_target="KOR (κ opioid receptor) (Homo sapiens, UniProt P41145)" value_measured=22
molecule="Cc1noc(-c2ncn3c2[C@@H](C)N=C(c2ccccc2F)c2cc(Br)ccc2-3)n1 [GL-III-60]" assay_target="KOR (κ opioid receptor) (Homo sapiens, UniProt P41145)" value_measured=87
molecule="CCNC(=O)c1ncn2c1[C@@H](C)N=C(c1ccccc1F)c1cc(C3CC3)ccc1-2 [GL-III-68]" assay_target="KOR (κ opioid receptor) (Homo sapiens, UniProt P41145)" value_measured=88
molecule="Brc1ccc2c(c1)C(c1ccccn1)=NCc1c(-c3cnco3)ncn1-2 [KRM-II-97]" assay_target="KOR (κ opioid receptor) (Homo sapiens, UniProt P41145)" value_measured=62
molecule="C#Cc1ccc2c(c1)C(c1ccccn1)=NCc1c(C(=O)OCC)ncn1-2 [Hz-166]" assay_target="KOR (κ opioid receptor) (Homo sapiens, UniProt P41145)" value_measured=60
molecule="C[C@H]1N=C(c2ccccc2F)c2cc(Br)ccc2-n2cnc(-c3cnco3)c21 [GL-III-36]" assay_target="KOR (κ opioid receptor) (Homo sapiens, UniProt P41145)" value_measured=88
molecule="C#Cc1ccc2c(c1)C(c1ccccc1F)=N[C@@H](C)c1c(C(=O)OCC)ncn1-2 [SH-053-2′F-S-CH3]" assay_target="KOR (κ opioid receptor) (Homo sapiens, UniProt P41145)" value_measured=93
molecule="CCc1noc(-c2ncn3c2[C@@H](C)N=C(c2ccccc2F)c2cc(C4CC4)ccc2-3)n1 [GL-IV-03]" assay_target="KOR (κ opioid receptor) (Homo sapiens, UniProt P41145)" value_measured=91
molecule="C#Cc1ccc2c(c1)C(c1ccccc1F)=N[C@@H](C)c1c(C(=O)O)ncn1-2 [SH-053-2′P-S-CH3 Acid]" assay_target="KOR (κ opioid receptor) (Homo sapiens, UniProt P41145)" value_measured=20
molecule="C#Cc1ccc2c(c1)C(c1ccccc1F)=N[C@@H](C)c1c(C(=O)OCCC)ncn1-2 [GL-I-32]" assay_target="KOR (κ opioid receptor) (Homo sapiens, UniProt P41145)" value_measured=95
molecule="Cc1noc(-c2ncn3c2[C@@H](C)N=C(c2ccccc2F)c2cc(C4CC4)ccc2-3)n1 [GL-III-63]" assay_target="KOR (κ opioid receptor) (Homo sapiens, UniProt P41145)" value_measured=78
molecule="C#Cc1ccc2c(c1)C(c1ccccc1F)=N[C@H](C)c1c(-c3nc(C)no3)ncn1-2 [MP-IV-004]" assay_target="KOR (κ opioid receptor) (Homo sapiens, UniProt P41145)" value_measured=86
molecule="C#Cc1ccc2c(c1)C(c1ccccc1F)=N[C@H](C)c1c(C(N)=O)ncn1-2 [MP-III-019.B]" assay_target="KOR (κ opioid receptor) (Homo sapiens, UniProt P41145)" value_measured=62
molecule="CCOC(=O)c1ncn2c1[C@@H](C)N=C(c1ccccc1F)c1cc(C3CC3)ccc1-2 [GL-III-42]" assay_target="KOR (κ opioid receptor) (Homo sapiens, UniProt P41145)" value_measured=86
molecule="C[C@H]1N=C(c2ccccn2)c2cc(Br)ccc2-n2cnc(C(=O)O)c21 [GL-II-51]" assay_target="KOR (κ opioid receptor) (Homo sapiens, UniProt P41145)" value_measured=11
molecule="C#Cc1ccc2c(c1)C(c1ccccn1)=N[C@H](C)c1c(C(=O)O)ncn1-2 [GL-II-30]" assay_target="KOR (κ opioid receptor) (Homo sapiens, UniProt P41145)" value_measured=0
molecule="C#Cc1ccc2c(c1)C(c1ccccc1F)=N[C@H](C)c1c(C(=O)NC3CC3)ncn1-2 [GL-II-75]" assay_target="KOR (κ opioid receptor) (Homo sapiens, UniProt P41145)" value_measured=81
molecule="C#Cc1ccc2c(c1)C(c1ccccc1F)=N[C@@H](C)c1c(C(=O)SCC)ncn1-2 [GL-I-77]" assay_target="KOR (κ opioid receptor) (Homo sapiens, UniProt P41145)" value_measured=95
molecule="C#Cc1ccc2c(c1)C(c1ccccc1F)=N[C@@H](C)c1c(C(=O)OC(C)C)ncn1-2 [GL-I-31]" assay_target="KOR (κ opioid receptor) (Homo sapiens, UniProt P41145)" value_measured=94
molecule="Cc1ncoc1-c1ncn2c1CN=C(c1ccccc1)c1cc(Br)ccc1-2 [KRM-III-66]" assay_target="KOR (κ opioid receptor) (Homo sapiens, UniProt P41145)" value_measured=67
molecule="C#Cc1ccc2c(c1)C(c1ccccc1F)=N[C@@H](C)c1c(C(=O)NC)ncn1-2 [MP-II-023]" assay_target="KOR (κ opioid receptor) (Homo sapiens, UniProt P41145)" value_measured=91
molecule="C#Cc1ccc2c(c1)C(c1ccccc1F)=N[C@@H](C)c1c(C(=O)OC)ncn1-2 [MP-III-021]" assay_target="KOR (κ opioid receptor) (Homo sapiens, UniProt P41145)" value_measured=93
molecule="C[C@H]1N=C(c2ccccc2F)c2cc(C3CC3)ccc2-n2cnc(C(=O)N(C)C)c21 [GL-III-70]" assay_target="KOR (κ opioid receptor) (Homo sapiens, UniProt P41145)" value_measured=68
molecule="C#Cc1ccc2c(c1)C(c1ccccn1)=NCc1c(-c3nc(CC)no3)ncn1-2 [MP-III-080]" assay_target="KOR (κ opioid receptor) (Homo sapiens, UniProt P41145)" value_measured=47
molecule="C[C@@H]1N=C(c2ccccc2F)c2cc(Br)ccc2-n2cnc(-c3cnco3)c21 [GL-III-76]" assay_target="KOR (κ opioid receptor) (Homo sapiens, UniProt P41145)" value_measured=83
molecule="C#Cc1ccc2c(c1)C(c1ccccc1F)=N[C@@H](C)c1c(C(=O)N(C)C)ncn1-2 [GL-I-54]" assay_target="KOR (κ opioid receptor) (Homo sapiens, UniProt P41145)" value_measured=78
molecule="C#Cc1ccc2c(c1)C(c1ccccc1F)=N[C@H](C)c1c(-c3cnco3)ncn1-2 [GL-III-73]" assay_target="KOR (κ opioid receptor) (Homo sapiens, UniProt P41145)" value_measured=74
molecule="C#Cc1ccc2c(c1)C(c1ccccc1F)=N[C@@H](C)c1c(C(=O)NC3CC3)ncn1-2 [GL-I-55]" assay_target="KOR (κ opioid receptor) (Homo sapiens, UniProt P41145)" value_measured=93
molecule="C#Cc1ccc2c(c1)C(c1ccccc1)=NCc1c(-c3cnco3)ncn1-2 [KRM-II-82]" assay_target="KOR (κ opioid receptor) (Homo sapiens, UniProt P41145)" value_measured=78

Reference source: patent US20240279232A1
